B1: BTBD10 (parent)
chain: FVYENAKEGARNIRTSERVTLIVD

# Variants of: B1
# PROTOCOL_DETAILS: protein stability index of a GFP-peptide fusion (GPS, HEK-293T) (PSI 1-6); higher = more stable;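 further: lentivirally expressed fusions sorted by FACS into six bins by GFP to DsRed ratio, PSI derived from sequencing read proportions per bin multiplied by bin number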
# CONDITION_CONTEXT: c terminus: a fixed tail appended
Could you please report measured protein stability index for the items listed next?
Numbers only.

INSERT INTO measurements (mutation_annotation, result_value) VALUES
  ('F1D', 3.29),
  ('K7W', 1.63),
  ('V19F', 2.27),
  ('L21V', 1.64),
  ('E8F', 1.86),
  ('A10R', 2.2);

For every listed record, write down its protein stability index.
1. E8P
2. T20F
3. N5Y
4. T20Y
5. Y3C
6. R14H
7. V23H
8. D24I

stdout:
1. 2.44
2. 2.63
3. 1.61
4. 1.81
5. 2.17
6. 1.99
7. 2.26
8. 2.95

For every listed record, write down its protein stability index.
1. G9A
2. N12A
3. K7S
4. I13R
5. G9R
6. R18I

stdout:
1.85
1.82
2.56
2.4
2.17
1.66

For every listed record, write down its protein stability index.
1. E8Y
2. E8T
3. D24C

stdout:
1. 1.94
2. 2.11
3. 1.91

Source: the supplement of paper PMC10567573
